# target_under_test: Luciferin 4-monooxygenase (Photinus pyralis)
# protocol_text: qHTS assay to identify small molecule inhibitors of firefly luciferase (AID 1224835); further: nearly all actives have a fitted effect of over 25% in size
# setup_conditions: purified P. pyralis luciferase, luminescence inhibition; series mostly up to 115 µM
Results filed as inconclusive are left out. Calls of active or inactive are those of the source. The call rests on the fitted dose curve; in most records, active means well fitted inhibition curve with a large enough effect in the repeat runs; inconclusive means weak or mixed curves; inactive means flat fitted curve, though single readings scatter.
Your reply should match one of these outcome classes. active, inactive

// known answers, use as guide
INSERT INTO assay_data (structure_notation, label) VALUES
  ('Clc1ccc2nsnc2c1NC1=NCCN1', 'inactive'),
  ('CC(=O)S[C@@H]1CC2=CC(=O)CC[C@]2(C)[C@H]2CC[C@@]3(C)[C@@H](CC[C@@]34CCC(=O)O4)[C@H]12', 'inactive'),
  ('CC(C)n1nc(-c2cc3cc(O)ccc3[nH]2)c2c(N)ncnc21', 'inactive');

For this compound, state the assay outcome: Cc1[nH]nc2c1N=C(c1ccccc1Cl)c1cc([N+](=O)[O-])ccc1N2 active

Field: outcome | Entry: CCc1cc(Cc2cc(CC)c(N)c(CC)c2)cc(CC)c1N inactive

###

# protocol_text: qHTS assay to identify small molecule antagonists of the sonic hedgehog signaling (Shh) pathway - cell viability counter screen (AID 1259367); further: nearly all actives have a fitted effect of over 55% in size
# setup_conditions: NIH/3T3 Gli1-Luc viability, CellTiter-Fluor, 24 h; series mostly up to 42.5 µM
Records with an inconclusive call do not appear. Activity calls are given as the source filed them. Calls come from the whole dose curve; as a rule, active = well fitted cell-killing curve with a large enough effect in the repeat runs; inconclusive = weak or mixed curves, or effect the other way; inactive = no such curve, though single readings can be large or run the other way.
Pick one: active, inactive

Here are 3 compounds together with their reported answers.
INSERT INTO measurements (compound, label) VALUES
  ('CC(C)(C)C(=O)OCOC(=O)C1N2C(=O)CC2S(=O)(=O)C1(C)C (stereo not given)', 'inactive'),
  ('S=c1[nH]c2ccccc2s1', 'active'),
  ('CCN(C(=O)N(CC)c1ccccc1)c1ccccc1', 'inactive');

Identify the outcome logged in this assay for the compound shown: NNC(=O)c1cccc(C(=O)NN)c1 inactive

Returns: the outcome recorded for CC(=O)SC[C@@H](Cc1ccccc1)C(=O)NCC(=O)OCc1ccccc1 in this assay. inactive

How did this test come out for On1ccccc1=S ? active

Could you check what this test reported for CC(C)=CCOc1ccc(/C=C/C(=O)c2ccc(OCC=C(C)C)cc2OCC(=O)O)cc1 ? inactive

Dear all, I need the recorded test outcome for CSc1cnc(C)cn1 , thank you. inactive

// outcome(item) with item = O=c1cc(-c2ccc(O)cc2)oc2cc(O)cc(O)c12 active

###

# protocol_text: A CellTox Green Cytotoxicity Assay to monitor cytotoxicity in HEK293 cells - 0 hour (AID 1224869); further: nearly all actives have a fitted effect of over 50% in size
# setup_conditions: CellTox Green fluorescence; series mostly up to 76.8 µM
Activity calls are given as the source filed them. Calls come from the whole dose curve; as a rule, active = well fitted activation curve with a large enough effect in the repeat runs; inconclusive = weak or mixed curves; inactive = flat fitted curve, though single readings scatter.
Could you please pick one outcome from this set? 1 (yes) = active, 0 (no) = inactive

INSERT INTO results (compound, label) VALUES
  ('NNc1nc(-c2ccc([N+](=O)[O-])cc2)cs1', '0 (no)'),
  ('CSc1cnc(C)cn1', '1 (yes)'),
  ('Cc1cccc(S(=O)(=O)O)c1C', '0 (no)');

Would you mind telling me which call this test gave CNC(=O)c1ccccc1 ? 0 (no)

Give the logged outcome of this assay for the following compound: CC(C)(C)CC(C)(C)c1ccc(O)c(Cc2ccc(Cl)cc2Cl)c1 0 (no)

Please state the recorded outcome for this compound: CCOC(=O)/C=C(C)/C=C/C=C(C)/C=C/c1c(C)cc(OC)c(C)c1C 0 (no)

Look up the recorded call for CC[C@@]1(O)C(=O)OCc2c1cc1n(c2=O)Cc2c-1nc1ccccc1c2/C=N/OC(C)(C)C in this test. 0 (no)

What outcome does the record of this test show for Clc1ccc(C(Cn2ccnc2)OCc2ccc(Sc3ccccc3)cc2)c(Cl)c1 (stereo unspecified) ? 0 (no)

Assay outcome for CCCCCCCC[P+](CCCCCCCC)(CCCCCCCC)CCCCCCCC : what was it? 0 (no)

Field: outcome | Entry: Cc1cc(O)c(C(C)(C)C)cc1Sc1cc(C(C)(C)C)c(O)cc1C 0 (no)

Hi team, can someone confirm the assay call for O=c1cccccc1O ? 0 (no)

For this compound, state the assay outcome: N#CSc1ccc(N)c([N+](=O)[O-])c1 0 (no)

Assay outcome for C[C@H]1[C@H]2CC[C@H]3[C@@H]4CC=C5C[C@@H](N(C)C)CC[C@]5(C)[C@H]4CC[C@]23CN1C : what was it? 0 (no)

Recorded test call requested for Cc1cccc2c1cc1ccc3cccc4ccc2c1c34 0 (no)

Query: recorded result category for CCC(CN)=C(c1ccccc1)c1ccccc1 in this test 0 (no)

State the result this test recorded for CC(=O)SC[C@@H](Cc1ccccc1)C(=O)NCC(=O)OCc1ccccc1 . 0 (no)

How did this test come out for Cc1oc(-c2ccccc2)nc1CCC(=O)c1ccc(CC2SC(=O)NC2=O)cc1 (stereo unspecified) ? 0 (no)

Please state the recorded outcome for this compound: O=c1c(-c2ccccc2)c1-c1ccccc1 0 (no)

Please share the test call associated with O=c1[nH]sc2ccccc12 . 0 (no)

# outcome recorded in this test, key = CCCCc1oc2ccc(NS(C)(=O)=O)cc2c1C(=O)c1ccc(OCCCN(CCCC)CCCC)cc1 0 (no)

Fill in: this test's call for O=c1[nH]sc2cc(Cl)ccc12 is ___ 0 (no)

What was the test verdict on Oc1ccc(Cl)cc1Sc1cc(Cl)ccc1O ? 0 (no)

###

# protocol_text: qHTS RealTime-Glo MT Cell Viability Assay in HEK293 cells - 24 hour (AID 1224886); further: nearly all actives have a fitted effect of over 50% in size
# setup_conditions: RealTime-Glo luminescence; series mostly up to 76.8 µM
# Description: National Center for Advancing Translational Sciences [NCATS] NIH Chemical Genomics Center [NCGC] U.S. Environmental Protection Agency [EPA] National Institutes of Environmental Health Sciences [NIEHS] National Toxicology Program [NTP] U.S. Food and Drug Administration [FDA] Measure of cell viability is critical in the cell-base assay. Analysis of cell viability is necessary for the characterization of cell responses to cytotoxic drugs and environmental stress. […]
Records with an inconclusive call do not appear. The source made the active and inactive calls. The call rests on the fitted dose curve; in most records, active means well fitted cell-killing curve with a large enough effect in the repeat runs; inconclusive means weak or mixed curves, or effect the other way; inactive means flat fitted curve, though single readings scatter.
Give your call using only these classes: True for active, False for inactive

Would you please look over these solved cases?
INSERT INTO measurements (structure_notation, label) VALUES
  ('CO[Si](CCCNc1ccccc1)(OC)OC', 'False'),
  ('CSc1ccc(/C=C2/C(C)=C(CC(=O)O)c3cc(F)ccc32)cc1', 'False');

Lab log entry: [O-][n+]1ccccc1SSc1cccc[n+]1[O-] — outcome as called in the assay? True

###

# target_under_test: Cytochrome P450 3A4 (Homo sapiens) (UniProt P08684)
# Sequence (P08684 whole entry, looked up): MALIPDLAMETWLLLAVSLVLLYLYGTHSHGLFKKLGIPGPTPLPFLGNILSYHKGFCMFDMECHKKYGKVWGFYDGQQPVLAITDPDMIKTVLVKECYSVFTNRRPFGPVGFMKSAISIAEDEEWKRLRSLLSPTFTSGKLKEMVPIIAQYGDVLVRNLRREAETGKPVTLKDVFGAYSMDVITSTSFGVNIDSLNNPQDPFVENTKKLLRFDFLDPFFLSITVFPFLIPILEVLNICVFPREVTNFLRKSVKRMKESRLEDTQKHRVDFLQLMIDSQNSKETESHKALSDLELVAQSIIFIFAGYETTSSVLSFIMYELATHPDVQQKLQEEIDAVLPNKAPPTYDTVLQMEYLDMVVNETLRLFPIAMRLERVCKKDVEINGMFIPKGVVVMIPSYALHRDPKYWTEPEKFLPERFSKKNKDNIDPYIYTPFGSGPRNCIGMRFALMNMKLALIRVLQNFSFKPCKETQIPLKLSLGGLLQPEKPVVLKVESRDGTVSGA
# protocol_text: Cytochrome P450 Family 3 Subfamily A Member 4 (CYP3A4) small molecule antagonists: luciferase reporter qHTS assay (AID 1671201); further: nearly all actives have a fitted effect of over 50% in size
# setup_conditions: P450-Glo CYP3A4 enzyme, luciferin luminescence, 1 h; series mostly up to 115 µM
Results filed as inconclusive are left out. Calls of active or inactive are those of the source. The call rests on the fitted dose curve; in most records, active means well fitted inhibition curve with a large enough effect in the repeat runs; inconclusive means weak or mixed curves; inactive means no such curve, though single readings can be large or run the other way.
Could you please pick one outcome from this set? YES = active, NO = inactive

Worked examples, 5 molecules total:
INSERT INTO assay_data (molecule, label) VALUES
  ('CN(C)C(=O)C1(N2CCCCC2)CCN(CC[C@@]2(c3ccc(Cl)c(Cl)c3)CN(C(=O)c3ccccc3)CCO2)CC1', 'YES'),
  ('Oc1cccc2cc3cccc(O)c3c(O)c12', 'NO'),
  ('O=c1[nH]sc2ccccc12', 'YES'),
  ('CCC1OCC(COc2ccc(Oc3ccccc3)cc2)O1 (configuration not stated)', 'NO'),
  ('O=C(Nc1ccc(Oc2ccc(Cl)cc2)c(Cl)c1)c1cc(I)cc(I)c1O', 'NO');

Hi team, can someone confirm the assay call for Cc1nc(-c2ccc3c(c2)CCN(CCC2CCC(NC(=O)/C=C/c4ccc(F)cc4)CC2)CC3)no1 (configuration not stated) ? NO

What is the recorded call for this molecule in the test? CNC(=O)c1ccccc1 NO

###

# protocol_text: qHTS assay to identify small molecule antagonists of the estrogen related receptor (ERR) signaling pathway from Tox21 library - cell viability counter screen (AID 1224834); further: nearly all actives have a fitted effect of over 30% in size
# setup_conditions: ERR reporter cells viability, CellTiter-Fluor, 17.5 h; series mostly up to 92.4 µM
Inconclusive results are not listed. Calls of active or inactive are those of the source. Calls follow the shape of the dose curve; as a rule, active = well fitted cell-killing curve with a large enough effect in the repeat runs; inconclusive = weak or mixed curves; inactive = flat fitted curve, though single readings scatter.
Respond with a class label; see true (active), false (inactive)

A selection of reference data follows.
INSERT INTO results (compound, label) VALUES
  ('CCN(CC)CCNC(=O)c1c(C)[nH]c(/C=C2\C(=O)Nc3ccc(F)cc32)c1C', 'true'),
  ('O=CC=C(c1ccccc1)c1ccccc1', 'true'),
  ('Cc1cc2c(cc1C(F)(F)F)N(C(=O)Nc1ccc(Oc3cccnc3C)nc1)CC2', 'true'),
  ('CCCCC(CC)CN=C(N)NC(N)=NCCCCCCN=C(N)NC(N)=NCC(CC)CCCC (stereo not drawn)', 'true'),
  ('CCN1/C(=C/C=C/c2sc3ccccc3[n+]2CC)Sc2ccccc21', 'true'),
  ('C[C@]12CCC(=O)C=C1CC[C@@H]1[C@@H]2[C@@H](O)C[C@@]2(C)[C@H]1CC[C@]2(O)C(=O)COC(=O)CCC(=O)O', 'false');

Which outcome did this test record for the compound Cc1cc(O)c(Cl)c(C)c1Cl ? false

Lab log entry: Cc1ccc(O)c2ncccc12 — outcome as called in the assay? true

Hey, what did the test say about CC1(C)CCC(C)(C)c2cc(C(=O)Nc3ccc(C(=O)O)cc3)ccc21 ? false

I would be grateful if you could indicate the recorded call for COc1ccc(CN2CCN(C(c3ccc(F)cc3)c3ccc(F)cc3)CC2)c(OC)c1OC . true

Called result for CCCC(c1cc(C(C)(C)C)c(O)cc1C)c1cc(C(C)(C)C)c(O)cc1C true

Field: outcome | Entry: CCCCCCCCCCCCCCCC[N+](C)(C)CCN(Cc1ccc(OC)cc1)c1ncccn1 true

GET /call?item= Oc1cccc(-c2c3nc(c(-c4cccc(O)c4)c4ccc([nH]4)c(-c4cccc(O)c4)c4nc(c(-c5cccc(O)c5)c5ccc2[nH]5)CC4)C=C3)c1 returns the recorded outcome of this test. true
